The reported numbers originate from ChEMBL document CHEMBL1149337.

- assayed target: Melanocortin receptor 4 (Homo sapiens)
- Sequence (P32245 whole entry): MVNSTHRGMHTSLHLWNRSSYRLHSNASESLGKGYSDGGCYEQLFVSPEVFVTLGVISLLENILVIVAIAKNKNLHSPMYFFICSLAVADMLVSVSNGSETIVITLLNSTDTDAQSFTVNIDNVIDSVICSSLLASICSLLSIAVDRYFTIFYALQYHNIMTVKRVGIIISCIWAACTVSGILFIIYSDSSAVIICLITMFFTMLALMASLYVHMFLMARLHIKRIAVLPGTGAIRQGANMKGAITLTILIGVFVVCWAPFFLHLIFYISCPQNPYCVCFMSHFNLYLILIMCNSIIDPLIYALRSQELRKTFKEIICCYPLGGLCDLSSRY
- procedure text: Agonist activity at human MC4R
Exam item: assign Y to entries whose EC50 is below 2 nM and N to entries at or above 2 nM. Note that a value of exactly 2 nM receives N.

Check if EC50 falls below 2 nM for CNC(=O)[C@H](Cc1ccc2ccccc2c1)N1CCN(C(=O)[C@H](N)Cc2ccc(F)cc2)[C@@H](CCCNC(N)=O)C1=O .
N

Check if EC50 falls below 2 nM for CNC(=O)[C@H](Cc1ccc2ccccc2c1)N1CCN(C(=O)[C@H](N)Cc2ccc(F)cc2)[C@@H](CCCN=C(N)N)C1=O .
Y

Check if EC50 falls below 2 nM for CNC(=O)[C@H](Cc1ccc2ccccc2c1)NC(=O)[C@H](CCCN=C(N)N)NC(=O)[C@H](N)Cc1ccc(F)cc1 .
N

Check if EC50 falls below 2 nM for CNC(=O)[C@H](Cc1ccc2ccccc2c1)N1CCN(C(=O)[C@@H](Cc2ccc(F)cc2)NC(=O)C2Cc3ccccc3CN2)[C@@H](CCCN=C(N)N)C1=O (stereo partly drawn) .
Y

Check if EC50 falls below 2 nM for CNC(=O)[C@H](Cc1ccc2ccccc2c1)N1CCN(C(=O)[C@H](N)Cc2ccc(F)cc2)[C@@H](CCNC(N)=O)C1=O .
N

Check if EC50 falls below 2 nM for CNC(=O)[C@H](Cc1ccc2ccccc2c1)N1CCN(C(=O)[C@@H](Cc2ccc(F)cc2)NC(C)=O)[C@@H](CCCN=C(N)N)C1=O .
Y

Check if EC50 falls below 2 nM for CNC(=O)[C@H](Cc1ccc2ccccc2c1)N1CCN(C(=O)CCc2ccc(F)cc2)[C@@H](CCCN=C(N)N)C1=O .
N

Check if EC50 falls below 2 nM for CNC(=O)[C@H](Cc1ccc2ccccc2c1)N1CCN(C(=O)[C@@H](Cc2ccccc2)NC(=O)[C@H](Cc2ccc(O)cc2)NC(C)=O)[C@@H](CCCN=C(N)N)C1=O .
Y

Check if EC50 falls below 2 nM for CNC(=O)[C@H](Cc1ccc2ccccc2c1)N1CCN(C(=O)[C@@H](Cc2ccc(F)cc2)NC(=O)[C@H](CCC(N)=O)NC(C)=O)[C@@H](CCCN=C(N)N)C1=O .
Y

Check if EC50 falls below 2 nM for CNC(=O)[C@H](Cc1ccc2ccccc2c1)N1CCN(C(=O)[C@@H](Cc2ccccc2)NC(=O)[C@H](Cc2c[nH]cn2)NC(C)=O)[C@@H](CCCN=C(N)N)C1=O .
Y

Check if EC50 falls below 2 nM for CNC(=O)[C@H](Cc1ccc2ccccc2c1)N1CCN(C(=O)[C@H](N)Cc2ccccc2)[C@@H](CCCN=C(N)N)C1=O .
Y

Check if EC50 falls below 2 nM for CNC(=O)[C@H](Cc1ccc2ccccc2c1)N1CCN(C(=O)[C@@H](Cc2ccc(F)cc2)NC(=O)[C@H](Cc2ccc(O)cc2)NC(C)=O)[C@@H](CCCN=C(N)N)C1=O .
N

---

Record form. Attribute: EC50. Fill in for each entry.
- assayed target: UniProt P41968
- Sequence (P41968 whole entry): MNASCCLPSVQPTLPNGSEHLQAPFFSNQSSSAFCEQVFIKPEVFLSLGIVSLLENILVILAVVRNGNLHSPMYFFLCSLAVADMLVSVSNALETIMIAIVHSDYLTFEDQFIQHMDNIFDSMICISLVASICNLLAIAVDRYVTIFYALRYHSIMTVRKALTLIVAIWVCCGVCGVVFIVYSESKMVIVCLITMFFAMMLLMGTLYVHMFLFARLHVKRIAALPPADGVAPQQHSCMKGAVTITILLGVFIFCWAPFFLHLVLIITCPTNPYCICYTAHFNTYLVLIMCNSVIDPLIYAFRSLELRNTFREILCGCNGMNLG
- procedure text: Agonist activity at human MC3R
- Assay type: functional
Expressed in nM, but write only the number.

Quickly give me recorded EC50 for CNC(=O)[C@H](Cc1ccc2ccccc2c1)N1CCN(C(=O)[C@@H](Cc2ccc(F)cc2)NC(=O)[C@H](CCC(N)=O)NC(C)=O)[C@@H](CCCN=C(N)N)C1=O
0.5

Quickly give me recorded EC50 for CNC(=O)[C@H](Cc1ccc2ccccc2c1)N1CCN(C(=O)[C@@H](Cc2ccccc2)NC(=O)[C@H](Cc2ccc(O)cc2)NC(C)=O)[C@@H](CCCN=C(N)N)C1=O
1

Quickly give me recorded EC50 for CNC(=O)[C@H](Cc1ccc2ccccc2c1)N1CCN(C(=O)CCc2ccc(F)cc2)[C@@H](CCCN=C(N)N)C1=O
142

Quickly give me recorded EC50 for CNC(=O)[C@H](Cc1ccc2ccccc2c1)N1CCN(C(=O)[C@H](N)Cc2ccccc2)[C@@H](CCCN=C(N)N)C1=O
41

Quickly give me recorded EC50 for CNC(=O)[C@H](Cc1ccc2ccccc2c1)N1CCN(C(=O)[C@@H](Cc2ccc(F)cc2)NC(=O)C2Cc3ccccc3CN2)[C@@H](CCCN=C(N)N)C1=O (stereo partly specified)
163

Quickly give me recorded EC50 for CNC(=O)[C@H](Cc1ccc2ccccc2c1)N1CCN(C(=O)[C@@H](Cc2ccccc2)NC(=O)[C@H](Cc2c[nH]cn2)NC(C)=O)[C@@H](CCCN=C(N)N)C1=O
0.4

---

Record form. Attribute: pKi. Fill in for each entry.
Kindly note that pKi refers to -log10 of the concentration in mol/L and answer with the value alone.

Enter measured pKi, system Melanocyte-stimulating hormone receptor (Homo sapiens), for the molecule shown: CNC(=O)[C@H](Cc1ccc2ccccc2c1)N1CCN(C(=O)[C@@H](Cc2ccc(F)cc2)NC(=O)C2Cc3ccccc3CN2)[C@@H](CCCN=C(N)N)C1=O (stereo partly drawn)
6.50

Enter measured pKi, system Melanocyte-stimulating hormone receptor (Homo sapiens), for the molecule shown: CNC(=O)[C@H](Cc1ccc2ccccc2c1)N1CCN(C(=O)[C@H](N)Cc2ccc(F)cc2)[C@@H](CCCN=C(N)N)C1=O
6.44

Enter measured pKi, system Melanocyte-stimulating hormone receptor (Homo sapiens), for the molecule shown: CNC(=O)[C@H](Cc1ccc2ccccc2c1)N1CCN(C(=O)[C@@H](Cc2ccccc2)NC(=O)[C@H](Cc2ccc(O)cc2)NC(C)=O)[C@@H](CCCN=C(N)N)C1=O
9.00

---

- assayed target: Melanocyte-stimulating hormone receptor (Homo sapiens)
- Sequence (Q01726 whole entry): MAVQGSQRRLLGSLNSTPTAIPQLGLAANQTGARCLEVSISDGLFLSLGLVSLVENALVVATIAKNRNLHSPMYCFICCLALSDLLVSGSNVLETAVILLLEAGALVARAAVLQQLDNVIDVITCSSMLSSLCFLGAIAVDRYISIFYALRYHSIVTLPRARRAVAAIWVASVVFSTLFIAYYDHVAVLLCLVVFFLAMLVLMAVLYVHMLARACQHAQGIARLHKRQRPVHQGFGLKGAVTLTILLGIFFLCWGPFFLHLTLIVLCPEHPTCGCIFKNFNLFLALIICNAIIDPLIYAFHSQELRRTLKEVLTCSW
- procedure text: Agonist activity at human MC1R
pEC50: −log10 of the molar value.
Where pEC50 equals or exceeds 9, the correct label is criterion met; where it does not, the label is criterion not met.

Determine whether this molecule has pEC50 no lower than 9: CNC(=O)[C@H](Cc1ccc2ccccc2c1)NC(=O)[C@H](CCCN=C(N)N)NC(=O)[C@H](N)Cc1ccc(F)cc1
criterion not met

Determine whether this molecule has pEC50 no lower than 9: CNC(=O)[C@H](Cc1ccc2ccccc2c1)N1CCN(C(=O)[C@@H](Cc2ccc(F)cc2)NC(=O)C2Cc3ccccc3CN2)[C@@H](CCCN=C(N)N)C1=O (some centres undefined)
criterion not met

Determine whether this molecule has pEC50 no lower than 9: CNC(=O)[C@H](Cc1ccc2ccccc2c1)N1CCN(C(=O)[C@H](N)Cc2ccc(F)cc2)[C@@H](CCCN=C(N)N)C1=O
criterion not met

Determine whether this molecule has pEC50 no lower than 9: CNC(=O)[C@H](Cc1ccc2ccccc2c1)N1CCN(C(=O)CCc2ccc(F)cc2)[C@@H](CCCN=C(N)N)C1=O
criterion not met

Determine whether this molecule has pEC50 no lower than 9: CNC(=O)[C@H](Cc1ccc2ccccc2c1)N1CCN(C(=O)[C@@H](Cc2ccc(F)cc2)NC(C)=O)[C@@H](CCCN=C(N)N)C1=O
criterion not met

Determine whether this molecule has pEC50 no lower than 9: CNC(=O)[C@H](Cc1ccc2ccccc2c1)N1CCN(C(=O)[C@@H](Cc2ccccc2)NC(=O)[C@H](Cc2c[nH]cn2)NC(C)=O)[C@@H](CCCN=C(N)N)C1=O
criterion met

Determine whether this molecule has pEC50 no lower than 9: CNC(=O)[C@H](Cc1ccc2ccccc2c1)N1CCN(C(=O)[C@@H](Cc2ccc(F)cc2)NC(=O)[C@H](CCC(N)=O)NC(C)=O)[C@@H](CCCN=C(N)N)C1=O
criterion met
